Target: F508delCFTR (Homo sapiens, UniProt P13569, DEL508-508)
Construct: expressed in transfected cells; host or cells: CFBE41o- human lung-derived epithelial cells (CFBE41o-F508delCFTR-HRP), doxycycline-inducible
Sequence (P13569 with tags, fused parts or gaps DEL508-508): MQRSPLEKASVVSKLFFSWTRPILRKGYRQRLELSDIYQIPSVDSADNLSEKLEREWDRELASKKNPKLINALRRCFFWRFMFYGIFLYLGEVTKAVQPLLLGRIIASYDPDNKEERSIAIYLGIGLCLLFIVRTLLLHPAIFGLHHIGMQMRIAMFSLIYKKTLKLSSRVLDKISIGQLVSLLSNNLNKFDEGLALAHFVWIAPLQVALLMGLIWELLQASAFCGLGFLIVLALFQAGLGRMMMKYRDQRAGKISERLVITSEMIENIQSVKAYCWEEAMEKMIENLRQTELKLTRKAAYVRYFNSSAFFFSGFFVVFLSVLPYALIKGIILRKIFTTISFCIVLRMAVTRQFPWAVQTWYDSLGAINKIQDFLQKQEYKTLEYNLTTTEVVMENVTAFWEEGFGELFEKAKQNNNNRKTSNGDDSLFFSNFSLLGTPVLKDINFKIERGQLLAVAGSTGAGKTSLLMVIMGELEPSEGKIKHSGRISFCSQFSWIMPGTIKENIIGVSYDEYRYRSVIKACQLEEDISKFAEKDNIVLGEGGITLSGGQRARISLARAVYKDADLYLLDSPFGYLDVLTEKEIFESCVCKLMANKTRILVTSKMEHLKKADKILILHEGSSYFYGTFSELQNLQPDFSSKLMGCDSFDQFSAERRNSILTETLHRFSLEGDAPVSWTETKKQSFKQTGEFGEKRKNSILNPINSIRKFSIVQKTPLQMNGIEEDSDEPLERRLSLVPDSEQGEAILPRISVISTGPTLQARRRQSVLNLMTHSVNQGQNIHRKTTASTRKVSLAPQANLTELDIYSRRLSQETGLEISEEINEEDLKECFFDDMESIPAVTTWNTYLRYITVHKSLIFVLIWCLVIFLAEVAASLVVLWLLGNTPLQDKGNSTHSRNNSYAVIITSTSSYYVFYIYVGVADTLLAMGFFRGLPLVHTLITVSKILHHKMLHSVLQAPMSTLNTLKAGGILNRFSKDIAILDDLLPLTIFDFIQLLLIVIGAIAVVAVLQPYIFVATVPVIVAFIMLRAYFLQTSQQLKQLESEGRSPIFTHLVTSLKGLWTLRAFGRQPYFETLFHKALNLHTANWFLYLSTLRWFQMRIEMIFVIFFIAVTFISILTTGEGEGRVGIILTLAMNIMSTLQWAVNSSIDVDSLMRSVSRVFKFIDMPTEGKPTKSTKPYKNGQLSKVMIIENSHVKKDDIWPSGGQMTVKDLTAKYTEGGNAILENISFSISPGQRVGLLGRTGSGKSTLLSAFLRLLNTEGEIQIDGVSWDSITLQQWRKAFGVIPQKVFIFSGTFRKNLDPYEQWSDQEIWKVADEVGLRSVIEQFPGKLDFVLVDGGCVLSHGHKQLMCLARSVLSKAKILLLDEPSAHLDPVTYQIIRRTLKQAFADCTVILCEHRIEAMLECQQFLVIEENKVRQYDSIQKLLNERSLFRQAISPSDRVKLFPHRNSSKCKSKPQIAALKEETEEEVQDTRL
Assay: Cell Surface Expression-Horse Radish Peroxidase (CSE-HRP) assay, test compound with co-corrector;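 further: percent of 2 µM positive control corrector over DMSO; co-corrector is that same compound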
Assay type: cell-based
Conditions: maximum at any tested concentration, normalized to positive control, with 2 μM co-corrector
ENDPOINT: Maximum % activity (with co-corrector)

Observe how each entry below is paired with its result.
>>> reported("Cc1ccccc1S(=O)(=O)NC(=O)C1CCCc2cccc(Cl)c21 (centres unmarked)")
"++ (≥150 and <350)"
>>> reported("COc1ccc(Br)c2c1C(C(=O)NS(=O)(=O)c1cccc3ncccc13)CC2 (centres unmarked)")
"+++ (≥350)"
>>> reported("O=C(NS(=O)(=O)c1cccc2ccccc12)C1(CCN2CCC(F)(F)C2)CCc2c(Cl)cccc21 (centres unmarked)")
"+++ (≥350)"
>>> reported("COc1ccc(Br)c2c1C(C(=O)NS(=O)(=O)c1cccc3nc(C(C)C)ccc13)CC2 (centres unmarked)")
"+++ (≥350)"
>>> reported("Cc1ccccc1S(=O)(=O)NC(=O)[C@H]1CCc2c(Cl)cccc21 (single isomer, unassigned)")
"++ (≥150 and <350)"

For the compound shown here, CC1(C(=O)NS(=O)(=O)c2cccc3ccccc23)CCc2ccc(OC(F)(F)F)cc21 (centres unmarked) , give the reported Maximum % activity (with co-corrector). +++ (≥350)

Quick one: Maximum % activity (with co-corrector) for O=C(NS(=O)(=O)c1cccc2ccccc12)C1CCCc2c(OC3CCOCC3)ccc(Br)c21 (centres unmarked) ? ++ (≥150 and <350)

Please look up its Maximum % activity (with co-corrector): Cc1ccccc1S(=O)(=O)NC(=O)C1(C)CCc2c1ccc(F)c2F (centres unmarked) ++ (≥150 and <350)

###

Assignment: determine reported Emax for the given compounds.
Target: F508delCFTR (Homo sapiens, UniProt P13569, DEL508-508)
Construct: expressed in transfected cells; host or cells: CFBE41o- human lung-derived epithelial cells (CFBE41o-F508delCFTR-HRP), doxycycline-inducible
Assay: Cell Surface Expression-Horse Radish Peroxidase (CSE-HRP) assay, test compound without co-corrector;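 on Emax: percent of on-plate 2 µM positive control corrector response over DMSO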
Format: cell-based
Settings: maximum at any tested concentration, normalized to on-plate positive control, without co-corrector

Entry Cc1ccccc1S(=O)(=O)NC(=O)C1CCc2c(-c3ccsc3)cccc21 (centres unmarked) : reported Emax = ? 50 to 150%

Which Emax is listed for CCC1(C(=O)NS(=O)(=O)c2c(C)nn(C)c2Cl)CCc2c(Cl)cccc21 (centres unmarked) ? < 50%

Quick one: Emax for Cc1cc(-c2cccc3c2CCC3C(=O)NS(=O)(=O)c2ccccc2C)ccn1 (centres unmarked) ? < 50%

Give the measured Emax of COc1ccc2c(n1)CCC2C(=O)NS(=O)(=O)c1cccc2ccccc12 (centres unmarked) . < 50%

So what's the measured Emax for this one? COc1ccc(-c2cncnc2)c2c1C(C(=O)NS(=O)(=O)c1cccc3ncccc13)CC2 (centres unmarked) 50 to 150%

###

Molecular target: F508delCFTR (Homo sapiens, UniProt P13569, DEL508-508)
Construct: expressed in transfected cells; host or cells: CFBE41o- human lung-derived epithelial cells (CFBE41o-F508delCFTR-HRP), doxycycline-inducible
Assay: Cell Surface Expression-Horse Radish Peroxidase (CSE-HRP) assay, test compound without co-corrector
Type: cell-based
Details: test compound without co-corrector
pEC50: −log10 of the molar value.
ENDPOINT: pEC50

Fill in: pEC50 of CCOC(=O)c1ccc(S(=O)(=O)NC(=O)C2CCc3c(OC)cccc32)cc1 (centres unmarked) is ___ ≤ 5.00

// pEC50 lookup, key: COc1cccc2c1CCC2C(=O)NS(=O)(=O)c1ccc(NCCC(C)(C)O)c([N+](=O)[O-])c1 (centres unmarked) ≤ 5.00

Need pEC50 of `C[C@@]1(C(=O)NS(=O)(=O)c2cccc3ccccc23)CCc2cccc(Cl)c21` , thanks. > 5.52

Query: pEC50; subject: CCC1(C(=O)NS(=O)(=O)c2cccc3ccccc23)CCCc2cccc(Cl)c21 (centres unmarked) > 5.52

Need pEC50, item O=C(NS(=O)(=O)c1cccc2ccccc12)C1CCCc2c(OC3COC3)ccc(Br)c21 (centres unmarked) 5.00 to 5.52

Entry under review: CCC1(C(=O)NS(=O)(=O)c2ccccc2OC(F)F)CCc2c(Cl)cccc21 (centres unmarked) . Reported pEC50? ≤ 5.00

Find the recorded pEC50 belonging to `COc1ccc(Br)c2c1[C@H](C(=O)NS(=O)(=O)c1cccc3ncccc13)CC2` and report it. > 5.52

Fill blank: measured pEC50 of the compound `O=C(NS(=O)(=O)c1cccc2ccccc12)[C@H]1CCCc2cccc(Cl)c21` is ____. 5.00 to 5.52

Return reported pEC50; argument: Cc1ccccc1S(=O)(=O)NC(=O)C1CCc2ccccc21 (centres unmarked) ≤ 5.00

Quick check: pEC50 of CCC1(C(=O)NS(=O)(=O)c2cccc3ccn(C)c23)CCc2c(Cl)cccc21 (centres unmarked) ? > 5.52

Please give the measured pEC50 for this compound: COc1cccc2c1CCC2C(=O)NS(=O)(=O)c1c(F)cccc1F (centres unmarked) ≤ 5.00

Can you look up the measured pEC50 of COc1ccc(C2CCC2)c2c1[C@@H](C(=O)NS(=O)(=O)c1cccc3ccccc13)C2 (single isomer, unassigned) for me? 5.00 to 5.52

Would you kindly share the measured pEC50 for `COc1ncc(C2CCC2)c2c1[C@@H](C(=O)NS(=O)(=O)c1cccc3ccccc13)CCC2` ? 5.00 to 5.52

# input compound: COc1ccc(C2CCC2)c2c1[C@H](C(=O)NS(=O)(=O)c1cccc3ccccc13)C2 (single isomer, unassigned) ; wanted: its pEC50 > 5.52

# query: pEC50 of entry CCC1(C(=O)NS(=O)(=O)c2cccc3ccccc23)CCCc2c(OC)cccc21 (centres unmarked) 5.00 to 5.52

Looking for the measured pEC50 of COc1cccc2c1CCC2C(=O)NS(=O)(=O)c1ccc(S(C)(=O)=O)cc1 (centres unmarked) , can you help? ≤ 5.00

Fill in the blank: the reported pEC50 of CCC1(C(=O)NS(=O)(=O)c2cccc3cnn(C)c23)CCc2c(Cl)cccc21 (centres unmarked) is ____. > 5.52

###

Could you please report measured EC50 for the items listed next?
Molecular target: F508delCFTR (Homo sapiens, UniProt P13569, DEL508-508)
Construct: expressed in transfected cells; host or cells: CFBE41o- human lung-derived epithelial cells (CFBE41o-F508delCFTR-HRP), doxycycline-inducible
Test: Cell Surface Expression-Horse Radish Peroxidase (CSE-HRP) assay, test compound without co-corrector
Type: cell-based
Details: test compound without co-corrector

Fill in the blank: the reported EC50 of `C[C@@]1(C(=O)NS(=O)(=O)c2cccc3ccccc23)CCc2c1ccc1c2OCO1` is ____. 3 to 10 µM

So what does the record say about EC50 for O=C(NS(=O)(=O)c1cccc2ccccc12)C1(CC2CCOC2)CCc2c(Cl)cccc21 (centres unmarked) ? < 3 µM

Record request: EC50 value, item CC(C)(O)COc1ccc(Br)c2c1CCCC2C(=O)NS(=O)(=O)c1cccc2ccccc12 (centres unmarked) ≥ 10 µM

EC50 lookup needed for CCC1(C(=O)NS(=O)(=O)c2ccccc2Oc2ccccc2)CCc2c(Cl)cccc21 (centres unmarked) , thanks. < 3 µM

Return reported EC50; argument: COc1ccc(Br)c2c1C(C(=O)NS(=O)(=O)c1cccc3ncc(C)n13)CC2 (centres unmarked) < 3 µM

EC50 for COc1ccc(C#N)c2c1C(C(=O)NS(=O)(=O)c1cccc3ccccc13)CCC2 (centres unmarked) ? 3 to 10 µM

Form field: reported EC50 of Cc1ccccc1S(=O)(=O)NC(=O)C1CCc2c(C3=CCOCC3)cccc21 (centres unmarked) 3 to 10 µM

Fill in the blank: the reported EC50 of `COc1ccc(OC)c2c1CC[C@H]2C(=O)NS(=O)(=O)c1cccc2ccccc12` is ____. 3 to 10 µM

###

Target: F508delCFTR (Homo sapiens, UniProt P13569, DEL508-508)
Construct: expressed in transfected cells; host or cells: CFBE41o- human lung-derived epithelial cells (CFBE41o-F508delCFTR-HRP), doxycycline-inducible
Assay: Cell Surface Expression-Horse Radish Peroxidase (CSE-HRP) assay, test compound with co-corrector;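 further: percent of 2 µM positive control corrector over DMSO; co-corrector is that same compound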
Assay type: cell-based
Conditions: maximum at any tested concentration, normalized to positive control, with 2 μM co-corrector
ENDPOINT: Maximum % activity (with co-corrector)

Please review the following examples before continuing.
>>> reported("Cc1ccccc1S(=O)(=O)NC(=O)C1CCc2c(Cl)cccc21 (stereo not drawn) [Example II-3]")
"+++ (≥350)"
>>> reported("Cc1ccccc1S(=O)(=O)NC(=O)C1CCCc2ccccc21 (stereo not drawn) [II-7]")
"++ (≥150 and <350)"
>>> reported("COc1ccc(C2CCC2)c2c1[C@@H](C(=O)NS(=O)(=O)c1cccc3ncccc13)CC2 [Example I-104]")
"+++ (≥350)"
>>> reported("COc1cccc2c1CCC2C(=O)NS(=O)(=O)c1c(C)nc(O)nc1O (stereo not drawn) [III-45]")
"+ (<150)"
>>> reported("COc1ccc(C2CCC2)c2c1[C@@H](C(=O)NS(=O)(=O)c1cccc3ncn(C)c13)CC2 [Example I-123]")
"+++ (≥350)"

# query: Maximum % activity (with co-corrector) of entry COc1ccc(Br)c2c1C(C(=O)NS(=O)(=O)c1cccc3cccnc13)CC2 (stereo not drawn) [II-116] +++ (≥350)

Query (compound): COc1cccc2c1CCC2C(=O)NS(=O)(=O)c1ncccc1C(=O)N(C)C (stereo not drawn) [III-82] ; field requested: Maximum % activity (with co-corrector) + (<150)

Using the record for COc1cc(-c2cccc3c2CCC3C(=O)NS(=O)(=O)c2ccccc2C)ccn1 (stereo not drawn) [II-42] , report its Maximum % activity (with co-corrector). ++ (≥150 and <350)

Quick one: Maximum % activity (with co-corrector) for CC(C)(O)COc1ccc(Br)c2c1CCCC2C(=O)NS(=O)(=O)c1cccc2ccccc12 (stereo not drawn) [II-93] ? + (<150)
